System under test: T1, Histidine-tagged human CD40 protein (hCD40-His) (human, UniProt P25942 21-193)
T1 construct: not shown: histidine tag
T1 sequence (P25942 21-193 limits assumed): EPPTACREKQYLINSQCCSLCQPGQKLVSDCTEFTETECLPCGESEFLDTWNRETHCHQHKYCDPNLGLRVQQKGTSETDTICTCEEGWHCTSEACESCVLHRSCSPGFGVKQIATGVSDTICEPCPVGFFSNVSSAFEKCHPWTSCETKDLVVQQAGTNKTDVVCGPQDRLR
Protocol description: SPR, Biacore T200; antibody on Protein A chip, hCD40-His injected; 1:1 fit
Protocol: The binding affinity of the anti-hCD40 antibodies were measured using surface plasmon resonance (SPR) using Biacore (Biacore, INC, Piscataway N.J.) T200 biosensor equipped with pre-immobilized Protein A sensor chips. Anti-hCD40 antibodies were collected by transfecting CHO-S cells and then purified. […] Dissociation was monitored for 300 seconds. […]
Measured quantity: koff

Please look at this binder and report its koff: 4H6-H3K2-IgG4 (antibody, V domains shown, Humanized) VH: EVQLQESGPGLVKPSQTLSLTCTVSGDSVSSGYWNWIRKHPGKKLEYMGFISYSGSTYYTPSLKSRITISRDTSKNQFSLKLSSVTAADTAVYFCARFRRYDDGVDYWGQGTLVTVSS VL: DIQMTQSPSAMSASVGDRVTITCRASHEISGYLSWIQQKPGGTIKRLINAASTLASGVPSRFSGSRSGTEFTLTISSLQPEDFADYYCLQYSSYPWTFGGGTKLEIK
0.0215 s⁻¹

Give the reported koff for this binder. 6A7-H1K2-IgG4 (antibody, V domains shown, Humanized) VH: QVQLVQSGAEVKKPGASVKVSCKASGYTFISYYIYWVRQAPGQGLEWMGGINPRNGGTNFNEKFKSRVTLTVDTSISTAYMELSRLRSEDTAVYYCARHGNGVYWGQGTTVTVSS VL: DVVMTQSPLSLPVTLGQPASISCRSSQSLLHSNGNTYLHWYQQRPGQSPNHLIYQVSNRFSGVPDRFSGSGSGTDFTLKISRVEAEDVGVYFCSQTTHVPWTFGGGTKVEIK
0.00386 s⁻¹
